Where do these numbers come from? They come from paper PMC5540273.

%Inh values for the molecules below.
tested on: SRMS; conditions: concentration: 1 μM, replicates: in singlicate; n = 1;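 also: KINOMEscan kinase panel screen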
Answer with the number, then the unit.

Below, each entry is followed by its recorded %Inh result.
molecule | value_kind | reported_value
Cl.Nc1ncnc2occ(-c3ccc(NC(=O)Nc4cc(C(F)(F)F)ccc4F)cc3)c12 [SB-707548] | %Inh | 4%
Cn1ccc2ncnc(Oc3ccc(NC(=O)Nc4ccncc4)c(Cl)c3)c21 | %Inh | 0%
COc1ccc(Nc2nccc(N3CCC(NC(=O)Nc4cccc(C(C)=O)c4)C3)n2)cc1 (centres unmarked) [GSK1379731] | %Inh | 0%
COCCNC(=O)c1ccc(-c2cc(C(=O)NC3CC3)cc(F)c2C)cc1 [GW868318] | %Inh | 24%

Please turn your attention to the following entry.
Enter reported %Inh observed with SRMS for COc1ccc(COc2cc(-n3cnc4ccccc43)sc2C(N)=O)cc1 [GSK1024304]
0%

---

system: ROCK2; conditions: concentration: 1 μM, replicates: in singlicate; n = 1
value_kind: %Inh (%)
Report the figure in % without appending any unit label.

Below, each entry is followed by its recorded %Inh result.
compound | unit_of_measure | reported_value
c1ccc(-c2cc(-c3c[nH]nc3-c3ccccn3)ccn2)cc1 [GW576604] | % | 30
Cc1cn2c(=O)cc(N3CCOCC3)nc2n1Cc1cccc(Cl)c1Cl [GSK2334006] | % | 30
COC(=O)Nc1nc2cc(Oc3ccc(NC(=O)Nc4cc(F)ccc4F)cc3)ccc2[nH]1.Cl [GW701424] | % | 67
Cc1nnc(-c2ccc3occ(-c4ccc(C(C)O)cc4)c3c2)o1 (centres unmarked) | % | 0

For the compound O=c1cc(N2CCOCC2)nc2n(Cc3cccc(F)c3)ccn12 [GSK2297430] , what %Inh is on record?
27

---

tested on: DCAMKL2; construct: gene DCLK2; settings: concentration: 1 μM, replicates: in singlicate; n = 1
%Inh values for the molecules below.
Report the figure in % without appending any unit label.

Below, each entry is followed by its recorded %Inh result.
molecule | value_kind | reported_value
Cc1c(Cn2c(C)nn3c(=O)cc(N4CCOC(C)C4)nc23)cccc1C(F)(F)F (centres unmarked) | %Inh | 0
O=C(NCCCN1CCOCC1)c1cccc(Nc2nccc(Nc3ccc(Oc4ccccc4)cc3)n2)c1 | %Inh | 0
COc1cc2c(cc1OC[C@@H](O)CO)ncc1c3ccc(C#N)cc3[nH]c21 | %Inh | 0

For the molecule O=C(NCCNc1ccnc(Nc2ccc(F)cc2)n1)Nc1ccccc1F , what %Inh is on record?
0

Now consider Cl.Nc1ncnc2occ(-c3ccc(NC(=O)Nc4cc(C(F)(F)F)ccc4F)cc3)c12 and answer again.
4

---

test system: MST1R; settings: concentration: 1 μM, replicates: in singlicate; n = 1
value_kind: %Inh (%)
Report the figure in % without appending any unit label.

molecule | reported_value
COc1cc2c(cc1OC[C@@H](O)CO)ncc1c3ccc(C#N)cc3[nH]c21 | 9
Cc1cccc(Cn2ccn3c(=O)cc(N4CCOCC4)nc23)c1 | 39

Enter reported %Inh observed with MST1R for CN1c2ccc(CNc3ccc(F)cc3)cc2-c2c(cnn2C)S1(=O)=O
0

Now consider Cn1cc(-c2ccc3c(c2)CCN3C(=O)Cc2ccccc2Cl)c2c(N)ncnc21 and answer again.
100

Now consider C[C@@H](Oc1cc(-n2cnc3ccc(NC(=O)NC(C)(C)C)cc32)sc1C(N)=O)c1ccccc1Cl and answer again.
29

Now consider CCc1ccnc(/C=C/c2n[nH]c3cc(Sc4ccccc4C(=O)NC)ccc23)c1 and answer again.
16

Now consider O=C(Nc1cccc(-c2nn3ncccc3c2-c2ccnc(Nc3cccc(C(F)(F)F)c3)n2)c1)c1c(F)cccc1F and answer again.
44

Now consider O=C(Nc1n[nH]c2cc(-c3cccc(F)c3)ccc12)C1CC1 and answer again.
15
